# test.target: WDR5 (Homo sapiens, UniProt P61964)
# assay.overview: Surface Plasmon Resonance (SPR) assay
# Type: binding
# Set-up: Full length WDR5 with an N-terminal His tag and C-terminal AviTag; His tag (N); made in house; host or cells: E. coli
# measurement.parameters: read-out: SPR Kd
Please respond with reported pKd for every item in the list.
Give bare numbers, as −log10 of the molar value.

>  <compound.structure.string>
C[C@@H]1CN(c2ccc(-c3c(F)cc(N4CCN(C)[C@@H](C)C4)c(NC(=O)c4ccc(F)cc4C(F)(F)F)c3F)cn2)C[C@H](C)O1

>  <test.target>
WDR5 (Homo sapiens, UniProt P61964)

>  <pKd>
8.84

$$$$
>  <compound.structure.string>
C[C@@H]1CN(c2ncc(-c3c(F)cc(N4CCN(C)[C@@H](C)C4)c(NC(=O)c4c[nH]c(=O)cc4C(F)(F)F)c3F)cn2)C[C@@H](C)O1

>  <test.target>
WDR5 (Homo sapiens, UniProt P61964)

>  <pKd>
8.91

$$$$
>  <compound.structure.string>
C[C@@H]1CN(c2cc(F)c(C3=CCN(c4ncc(F)cn4)CC3)c(F)c2NC(=O)c2c[nH]c(=O)cc2C(F)(F)F)C[C@H](C)N1C

>  <test.target>
WDR5 (Homo sapiens, UniProt P61964)

>  <pKd>
9.08

$$$$
>  <compound.structure.string>
C[C@@H]1CN(c2cc(F)c(C3=CCN(C(=O)OC4(C)CCC4)C3)c(F)c2NC(=O)c2c[nH]c(=O)cc2C(F)(F)F)C[C@H](C)N1C

>  <test.target>
WDR5 (Homo sapiens, UniProt P61964)

>  <pKd>
9.02

$$$$
>  <compound.structure.string>
C[C@@H]1CN(c2ccc(-c3c(F)cc(N4CCN(C)[C@@H](C)C4)c(NC(=O)c4ccc(F)cc4C(F)F)c3F)cn2)C[C@H](C)O1

>  <test.target>
WDR5 (Homo sapiens, UniProt P61964)

>  <pKd>
8.85

$$$$
>  <compound.structure.string>
C[C@@H]1CN(c2ncc(-c3c(F)cc(N4C[C@@H](C)N(C)[C@@H](C)C4)c(NC(=O)c4c[nH]c(=O)cc4C(F)(F)F)c3F)cn2)CCO1

>  <test.target>
WDR5 (Homo sapiens, UniProt P61964)

>  <pKd>
9.16

$$$$

Please supply pKd for each of the following items, keeping them in order.
1. C[C@H]1CN(c2cc(F)c(C3=CCN(C(=O)OC4CC(F)(F)C4)CC3)c(F)c2NC(=O)c2c[nH]c(=O)cc2C(F)F)CCN1C
2. C[C@@H]1CN(c2ncc(-c3c(F)cc(N4CCN(C)[C@@H](C)C4)c(NC(=O)c4c[nH]c(=O)cc4C(F)F)c3F)cn2)C[C@@H](C)O1
3. C[C@H]1CN(c2cc(F)c(-c3ccc(OC4CCOCC4)nc3)c(F)c2NC(=O)c2c[nH]c(=O)cc2C(F)(F)F)CCN1C
4. C[C@@H]1CN(c2cc(F)c(-c3ccc(OCC4CC4)nc3)c(F)c2NC(=O)c2c[nH]c(=O)cc2C(F)(F)F)C[C@H](C)N1C
5. COc1cnc(N2CCC=C(c3c(F)cc(N4CCN(C)[C@@H](C)C4)c(NC(=O)c4c[nH]c(=O)cc4C(F)(F)F)c3F)C2)nc1
6. CC(C)OC(=O)N1CC=C(c2c(F)cc(N3C[C@@H](C)N(C)[C@@H](C)C3)c(NC(=O)c3c[nH]c(=O)cc3C(F)(F)F)c2F)CC1

1: 8.62; 2: 9.15; 3: 9.10; 4: 9.23; 5: 9.34; 6: 8.58

---

Structures can show the parent of a compound that is named as a salt.
Listed here: compounds with reported pIC50 for WDR5 (Homo sapiens).
Answers are plain numbers, as −log10 of the molar value.

Please supply pIC50 for each of the following items, keeping them in order.
1. CC(C)[C@@H]1CN(c2ncc(-c3c(F)cc(N4CCN(C)[C@@H](C)C4)c(NC(=O)c4c[nH]c(=O)cc4C(F)(F)F)c3F)cn2)CCO1 [Example 104]
2. C[C@H]1CN(c2cc(F)c(C3=CCN(C(=O)OC4(C)CCC4)CC3)c(F)c2NC(=O)c2c[nH]c(=O)cc2C(F)(F)F)CCN1C [Example 93]
3. C[C@H]1CN(c2cc(F)c(-c3ccc(N4CCOCC4)nc3)c(F)c2NC(=O)c2ccc(F)cc2C(F)F)CCN1C [Example 180]
4. C[C@@H]1CN(c2ncc(-c3c(F)cc(N4CCN(C)[C@@H](C)C4)c(NC(=O)c4c[nH]c(=O)cc4C(F)F)c3F)cn2)C[C@H](C)O1 [Example 33]
5. C[C@@H]1CN(c2cc(F)c(-c3cnc(N4CCOCC4)c(C#N)c3)c(F)c2NC(=O)c2c[nH]c(=O)cc2C(F)(F)F)C[C@H](C)N1C [Example 64]

7.78
7.81
7.65
7.83
7.83

Please supply pIC50 for each of the following items, keeping them in order.
1. C[C@@H]1CN(c2cc(F)c(C3=CCN(C(=O)OC4(C)CCC4)CC3)c(F)c2NC(=O)c2c[nH]c(=O)cc2C(F)(F)F)C[C@H](C)N1C [Example 144]
2. C[C@H]1CN(c2cc(F)c(C3=CCN(C(=O)OC4CC(F)(F)C4)CC3)c(F)c2NC(=O)c2c[nH]c(=O)cc2C(F)F)CCN1C [Example 42]
3. C[C@H]1CN(c2cc(F)c(C3=CCN(C(=O)OC4CC(F)(F)C4)C3)c(F)c2NC(=O)c2c[nH]c(=O)cc2C(F)F)CCN1C [Example 44]
4. C[C@@H]1CN(c2cc(F)c(-c3ccc(F)c(C(N)=O)c3)c(F)c2NC(=O)c2c[nH]c(=O)cc2C(F)(F)F)C[C@H](C)N1C [Example 28]
5. C[C@H]1CN(c2cc(F)c(C3=CCN(c4ncc(C#N)s4)C3)c(F)c2NC(=O)c2c[nH]c(=O)cc2C(F)F)CCN1C [Example 95]
6. C[C@@H]1CN(c2ccc(-c3c(F)cc(N4C[C@@H](C)N(C)[C@@H](C)C4)c(NC(=O)c4c[nH]c(=O)cc4C(F)F)c3F)cn2)CCO1 [Example 190]

[7.90, 7.95, 7.84, 7.44, 7.86, 7.89]

Please supply pIC50 for each of the following items, keeping them in order.
1. COc1cnc(N2CC=C(c3c(F)cc(N4CCN(C)[C@@H](C)C4)c(NC(=O)c4c[nH]c(=O)cc4C(F)F)c3F)C2)nc1 [Example 50]
2. C[C@H]1CN(c2cc(F)c(C3=CCCN(c4ncc(F)cn4)C3)c(F)c2NC(=O)c2c[nH]c(=O)cc2C(F)F)CCN1C [Example 83]
3. C[C@@H]1CN(c2ncc(-c3c(F)cc(N4C[C@@H](C)N(C)[C@@H](C)C4)c(NC(=O)c4c[nH]c(=O)cc4C(F)(F)F)c3F)cn2)C[C@@H](C)O1 [Example 86]
4. C[C@H]1CN(c2ncc(-c3c(F)cc(N4CCN(C)[C@@H](C)C4)c(NC(=O)c4ccc(F)cc4C(F)(F)F)c3F)cn2)C[C@H](C)O1 [Example 166, Formic Acid Salt]
5. C[C@@H]1CN(c2nccc(-c3c(F)cc(N4C[C@@H](C)N(C)[C@@H](C)C4)c(NC(=O)c4c[nH]c(=O)cc4C(F)F)c3F)n2)C[C@H](C)O1 [Example 78]

[7.93, 7.81, 7.88, 7.93, 7.83]

---

# test.target: UniProtKB P61964
# assay.overview: Surface Plasmon Resonance (SPR) assay
# Format: binding
# Parameters: Full length WDR5 with an N-terminal His tag and C-terminal AviTag; His tag (N); made in house; host or cells: E. coli
# measurement.parameters: read-out: SPR Kd
# Method: Exemplary compounds of the application were dissolved in 100% DMSO at 10 mM, assayed fresh, and then stored at −20° C. for repeat studies and other experiments. Full length WDR5 with an N-terminal His tag and C-terminal AviTag (Avidity Inc.) was expressed in E. coli with coexpression of BirA to biotin label the protein in vivo. Purification was via Ni-NTA. SPR studies were performed using a Biacore™ T200 instrument (GE Health Sciences Inc.). […]
Label key: 1 means Kd under 1 nM; -1 means Kd of 1 nM or more.

Consider the following illustrative entries.
>  <compound.structure.string>
C[C@@H]1CN(c2ncc(-c3c(F)cc(N4CCN(C)[C@@H](C)C4)c(NC(=O)c4cn(C)c(=O)cc4C(F)F)c3F)cn2)C[C@H](C)O1

>  <label.value>
-1

$$$$
>  <compound.structure.string>
C[C@H]1CN(c2ncc(-c3c(F)cc(N4CCN(C)[C@@H](C)C4)c(NC(=O)c4c[nH]c(=O)cc4C(F)(F)F)c3F)cn2)C[C@H](C)O1

>  <label.value>
-1

$$$$
>  <compound.structure.string>
C[C@H]1CN(c2cc(F)c(C3=CCCN(c4ncc(C#N)s4)C3)c(F)c2NC(=O)c2c[nH]c(=O)cc2C(F)(F)F)CCN1C

>  <label.value>
-1

$$$$
>  <compound.structure.string>
C[C@H]1CN(c2ncc(-c3c(F)cc(N4CCN(C)[C@@H](C)C4)c(NC(=O)c4c[nH]c(=O)cc4C(F)(F)F)c3F)cn2)CCO1

>  <label.value>
-1

$$$$
>  <compound.structure.string>
C[C@@H]1CN(c2ncc(-c3c(F)cc(N4CCN(C)[C@@H](C)C4)c(NC(=O)c4c[nH]c(=O)cc4C(F)(F)F)c3F)cn2)C[C@H](C)O1

>  <label.value>
1

$$$$

Now examine the next entry.
Quick check: does C[C@@H]1CN(c2ncc(-c3c(F)cc(N4CCN(C)[C@@H](C)C4)c(NC(=O)c4cn(C)c(=O)cc4C(F)F)c3F)cn2)C[C@@H](C)O1 have Kd under 1 nM?
-1
